This collection of values is drawn from patent US20230151068A1.

test_target: biotinylated His-Avi-TEAD (194-411) (UniProt P28347)
measurement_description: SSM screen, enrichment after two rounds of sorting
measure: enrichment score

a. GSPDEGIERAKECCKKGDIQCCLRYFEESGDPNVMLICLFCP (designed binder) [Y04G variant of SEQ ID NO: 1]
b. GSPDEYIERAKECCKKGDIPCCLRYFEESGDPNVMLICLFCP (designed binder) [Q18P variant of SEQ ID NO: 1]
c. GSPDEYRERAKECCKKGDIQCCLRYFEESGDPNVMLICLFCP (designed binder) [I05R variant of SEQ ID NO: 1]
Falling order of enrichment score, please. Use the labels to give the ranking in the order requested. b, a, c
(b: 0.69, a: -2.21, c: -3.27)
